- Read-out: Monocyte Chemoattractant Protein-1 (MCP1), CCL2 (gene 6347)
- METHOD_NOTES: BSK_3C_MCP1: BioMAP Diversity Plus: 3C Assay for Monocyte Chemoattractant Protein-1 (MCP1) Biomarker Activity (AID 2283017)
- ASSAY_SETUP: primary human endothelial cells (HUVEC); actives raise or lower the signal
- Procedure: BSK_3C is a cell-based, multiplexed-readout assay that uses umbilical vein endothelium, a human vascular primary cell, with measurements taken at 24 hours after chemical dosing in a 96-well plate.BSK_3C_MCP1 is an assay component measured in the BSK_3C assay. It measures MCP-1 antibody related to regulation of gene expression using ELISA technology.Data from the assay component BSK_3C_MCP1 was analyzed into 1 assay endpoint. […]
Active and inactive are the calls of the source. How the source made its calls: active means hit-call score of the fitted dose curve at least 0.9, where 1 is the maximum; inactive means score below 0.9.
Assign a class; possible classes are true (active), false (inactive)

Please review the entries below; each comes with its answer.
- COC(=O)c1ccccc1O: false
- CC(C)CCCCCCOC(=O)c1ccc(C(=O)OCCCCCCC(C)C)c(C(=O)OCCCCCCC(C)C)c1: false

Problem: Identify the outcome logged in this assay for the compound shown: CC1=CC(=O)CC(C)(C)C1
Solution: false

Problem: Which outcome was entered for the compound CCn1nc(Cc2ccccc2)cc1C1CCN(C[C@H]2C[C@H](N(C)[C@@H](C(=O)O)C(C)C)C[C@@H]2c2cccc(F)c2)CC1 in this test?
Solution: false

Problem: Would you mind telling me which call this test gave O=C(O)c1cccc(N(Cc2cccnc2)c2ccc(OC(F)F)c(OC(F)F)c2)c1 ?
Solution: false

Problem: Kindly provide the recorded test outcome for the following compound: CC(C)CCO
Solution: false

Problem: What is the recorded call for this compound in the test? CC(C)CC(C)(O)C#CC(C)(O)CC(C)C (configuration not stated)
Solution: false

Problem: # fetch the recorded call for Fc1ccccc1[C@@H](F)COC1CCC(Nc2ncnc3[nH]ncc23)CC1 (some centres not stated) here
Solution: true

Problem: I would be grateful if you could indicate the recorded call for C=CCCCCCCCCC(=O)O .
Solution: false

Problem: Name the outcome recorded for CCCCC(CC)COC(=O)CCCCCCCCC(=O)OCC(CC)CCCC (configuration not stated) in the assay.
Solution: false

Problem: Hello, I am checking results. What call was entered for O=C1OC(=O)C2C3C=CC(C3)C12 (configuration not stated) ?
Solution: false

Problem: What did this assay record as the result for CC(C)=CCCC(C)CCO (configuration not stated) ?
Solution: false
